Can you tell me Occupancy difference (refined_occupancy - 2*(1-BDC)) for the items I'm about to list?
Biological target: SARS-CoV-2 NSP3 macrodomain (Mac1) (Severe acute respiratory syndrome coronavirus 2)
Type: binding

Req: Provide the documented Occupancy difference (refined_occupancy - 2*(1-BDC)) with SARS-CoV-2 NSP3 macrodomain (Mac1) (Severe acute respiratory syndrome coronavirus 2) as the system for OC[C@@H]1C[C@H](F)CN1c1ncnc2[nH]ccc12 [AVI-609]
Resp: 0

Req: # iterate: OCC(O)C1CCCN1c1ncnc2[nH]ccc12 (centres unmarked) [AVI-3701]
Resp: 0

Req: # iterate: Cn1cc(CC(CO)Nc2ncnc3[nH]ccc23)cn1 (centres unmarked) [AVI-3657]
Resp: 0

Req: # iterate: O=C(O)C(F)(F)F.OCC12CC(CN1c1ncnc3[nH]ccc13)C2 [AVI-3681]
Resp: -14

Req: # iterate: OCC(CN1CCCCC1)Nc1ncnc2[nH]ccc12 (centres unmarked) [AVI-3677]
Resp: 0

Req: # iterate: Cc1nn(C)cc1C1CC[C@H](CO)N1c1ncnc2[nH]ccc12 (some centres unmarked) [AVI-3733]
Resp: 20

Req: # iterate: Cc1cc2c(=O)n(CCN3C(=O)c4ccccc4S3(=O)=O)nnc2s1 [AVI-341]
Resp: 14

Req: # iterate: C#CCC(CO)Nc1ncnc2[nH]ccc12 (centres unmarked) [AVI-3644]
Resp: 0

Req: # iterate: O[C@H]1COC[C@@H]1Nc1ncnc2[nH]ccc12 [AVI-1444]
Resp: 0

Req: # iterate: CC(C)(C)CC(CO)Nc1ncnc2[nH]ccc12 (centres unmarked) [AVI-3648]
Resp: 0

Req: # iterate: OCC1CCCN1c1ncnc2[nH]ccc12 (centres unmarked) [AVI-3685]
Resp: 20
